# System: c-Src
# methodNotes: phosphorylation enrichment, bacterial display (enrichment ratio); higher = better substrate or ligand; peptides without Tyr show the background;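 further: 11-residue human phosphosite peptides and single-mutation variants displayed on the E. coli surface, counted by deep sequencing, each peptide's frequency after selection divided by its frequency in the unselected input library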;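 further: frequency after pTyr selection over input frequency; kinase dosed for 20-30% of maximal phosphorylation in three min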
propertyName: phosphorylation enrichment
I only need the number, thanks.

### Prompt Item VAVVDYVEPSP [TXNRD2_Y70] : provide phosphorylation enrichment
### Response 0.416

### Prompt Item PGIRMYRVQFN [LRFN1_Y454_Q455R_YF] : provide phosphorylation enrichment
### Response 0.607

### Prompt Item AAVPAYDKIQV [STXBP2_Y401_R405Q] : provide phosphorylation enrichment
### Response 0.593

### Prompt Item AGARMYGVLPW [PLP1_Y207_D203G] : provide phosphorylation enrichment
### Response 3.6

### Prompt Item CTTIHYNYMCN [TP53_Y234] : provide phosphorylation enrichment
### Response 0.469

### Prompt Item RAKLFYQEVPA [METTL11B_Y76] : provide phosphorylation enrichment
### Response 0.385

### Prompt Item DKANRYFSPNV [PTEN_Y336_F341V] : provide phosphorylation enrichment
### Response 0.388

### Prompt Item TLNTNYHLPPS [MT-ATP8_Y33_M28T] : provide phosphorylation enrichment
### Response 0.403

### Prompt Item SDFFAYSPVRE [H6PD_Y449_YF] : provide phosphorylation enrichment
### Response 0.573

### Prompt Item `VRLTEYPCAGL` : provide phosphorylation enrichment
### Response 0.398

### Prompt Item AASTDYFKRGD [PDHA1_Y242_YF] : provide phosphorylation enrichment
### Response 0.352

### Prompt Item FGFPGYQSKHF [TIMP3_Y177_YF] : provide phosphorylation enrichment
### Response 0.401

### Prompt Item IEDNEYTAREG [HCK_Y411] : provide phosphorylation enrichment
### Response 0.67

### Prompt Item DVCKNYAEAKD [ALB_Y343] : provide phosphorylation enrichment
### Response 0.55

---

# target: MERTK (UniProt Q12866)
# Sequence (Q12866 whole entry, looked up): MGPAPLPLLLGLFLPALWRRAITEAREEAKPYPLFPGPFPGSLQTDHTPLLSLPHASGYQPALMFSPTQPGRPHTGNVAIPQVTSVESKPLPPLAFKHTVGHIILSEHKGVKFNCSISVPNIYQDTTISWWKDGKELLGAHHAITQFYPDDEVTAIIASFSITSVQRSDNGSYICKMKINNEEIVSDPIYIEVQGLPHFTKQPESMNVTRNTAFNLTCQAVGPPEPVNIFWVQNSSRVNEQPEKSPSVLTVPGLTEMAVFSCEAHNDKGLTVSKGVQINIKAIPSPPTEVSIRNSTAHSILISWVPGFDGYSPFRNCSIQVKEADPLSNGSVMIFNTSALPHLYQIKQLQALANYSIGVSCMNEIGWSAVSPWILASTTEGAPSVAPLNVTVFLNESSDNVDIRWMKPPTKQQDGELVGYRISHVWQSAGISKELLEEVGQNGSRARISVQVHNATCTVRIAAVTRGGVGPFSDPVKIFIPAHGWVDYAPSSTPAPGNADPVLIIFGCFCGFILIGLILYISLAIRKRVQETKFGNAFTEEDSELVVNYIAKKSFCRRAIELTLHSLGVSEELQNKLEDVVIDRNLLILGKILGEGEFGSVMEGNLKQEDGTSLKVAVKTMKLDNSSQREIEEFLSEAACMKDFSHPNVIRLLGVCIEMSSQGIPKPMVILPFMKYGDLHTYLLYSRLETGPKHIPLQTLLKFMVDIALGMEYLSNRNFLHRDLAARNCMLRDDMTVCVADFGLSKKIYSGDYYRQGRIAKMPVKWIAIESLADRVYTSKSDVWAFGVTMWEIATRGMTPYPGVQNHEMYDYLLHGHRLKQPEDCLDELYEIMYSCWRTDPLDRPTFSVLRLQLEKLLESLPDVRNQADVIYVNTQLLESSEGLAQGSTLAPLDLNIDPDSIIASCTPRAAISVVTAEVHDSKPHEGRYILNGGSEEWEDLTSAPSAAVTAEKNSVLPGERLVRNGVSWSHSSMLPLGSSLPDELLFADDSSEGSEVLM
# methodNotes: phosphorylation enrichment, bacterial display (enrichment ratio); higher = better substrate or ligand; peptides without Tyr show the background
Everything with phosphorylation enrichment lower than 0.5 is 0 (no); everything else, including exactly 0.5, is 1 (yes).

### Prompt I'd appreciate it if you could say whether RLSELYLRRNR [CFAP410_Y68] has phosphorylation enrichment at least equal to 0.5.
### Response 1 (yes)

### Prompt I'd appreciate it if you could say whether SETDDYAEIID [PTK2_Y397] has phosphorylation enrichment at least equal to 0.5.
### Response 1 (yes)

### Prompt I'd appreciate it if you could say whether `VRLTEYPCAGL` has phosphorylation enrichment at least equal to 0.5.
### Response 0 (no)

### Prompt I'd appreciate it if you could say whether SSAKTYSRMRL [NBEAL2_Y1835_E1833K] has phosphorylation enrichment at least equal to 0.5.
### Response 0 (no)

### Prompt I'd appreciate it if you could say whether ADKSAYLMGPN [MYH7_Y386_L390P] has phosphorylation enrichment at least equal to 0.5.
### Response 0 (no)

### Prompt I'd appreciate it if you could say whether GVRLYYRVRES [RB1_Y454_M457R] has phosphorylation enrichment at least equal to 0.5.
### Response 0 (no)

### Prompt I'd appreciate it if you could say whether DLAAQYTTVGH [SGSH_Y240_R245H] has phosphorylation enrichment at least equal to 0.5.
### Response 0 (no)

### Prompt I'd appreciate it if you could say whether SDFFAYSPVRE [H6PD_Y449_YF] has phosphorylation enrichment at least equal to 0.5.
### Response 0 (no)

### Prompt I'd appreciate it if you could say whether YIGVTYKNKED [PDGFRA_Y993_E996K] has phosphorylation enrichment at least equal to 0.5.
### Response 0 (no)

### Prompt I'd appreciate it if you could say whether TVLEPYADPFF [ZC3H18_Y367_YF] has phosphorylation enrichment at least equal to 0.5.
### Response 0 (no)

### Prompt I'd appreciate it if you could say whether NTGYYYDLYGG [PTPN11_Y63_D61Y] has phosphorylation enrichment at least equal to 0.5.
### Response 1 (yes)

### Prompt I'd appreciate it if you could say whether RLLRGYRQDAF [HLA-A_Y137_F133L_YF] has phosphorylation enrichment at least equal to 0.5.
### Response 1 (yes)

### Prompt I'd appreciate it if you could say whether MPLTEYLKQIK [CNGB3_Y200_R203Q] has phosphorylation enrichment at least equal to 0.5.
### Response 0 (no)

### Prompt I'd appreciate it if you could say whether EFISEYCGEII [EZH2_Y641] has phosphorylation enrichment at least equal to 0.5.
### Response 1 (yes)

### Prompt I'd appreciate it if you could say whether FPKVRYHWLVL [APTX_Y214_A212V_YF] has phosphorylation enrichment at least equal to 0.5.
### Response 0 (no)

### Prompt I'd appreciate it if you could say whether LVQAEYWHDPI [PPT1_Y185] has phosphorylation enrichment at least equal to 0.5.
### Response 1 (yes)

### Prompt I'd appreciate it if you could say whether SSSNPYSTVTV [ACTN2_Y599_M604V] has phosphorylation enrichment at least equal to 0.5.
### Response 0 (no)

### Prompt I'd appreciate it if you could say whether DLQDENDFKCK [STAT1_Y170_Y170N] has phosphorylation enrichment at least equal to 0.5.
### Response 0 (no)

### Prompt I'd appreciate it if you could say whether EAEPFYRSLRD [NPHS1_Y1139_YF] has phosphorylation enrichment at least equal to 0.5.
### Response 1 (yes)

### Prompt I'd appreciate it if you could say whether KGEDFYCVTYH [FHL1_Y149_C153Y] has phosphorylation enrichment at least equal to 0.5.
### Response 1 (yes)

### Prompt I'd appreciate it if you could say whether PICEGYALPHA [ACTC1_Y171_Y168C] has phosphorylation enrichment at least equal to 0.5.
### Response 0 (no)

### Prompt I'd appreciate it if you could say whether WGLRSYFETSK [MAGED2_Y448_YF] has phosphorylation enrichment at least equal to 0.5.
### Response 0 (no)

### Prompt I'd appreciate it if you could say whether IENKLYGMSDS [RET_Y1062_P1067S] has phosphorylation enrichment at least equal to 0.5.
### Response 1 (yes)

### Prompt I'd appreciate it if you could say whether GFPVHYTDMSN [DNMT3B_Y815_V818M] has phosphorylation enrichment at least equal to 0.5.
### Response 1 (yes)

### Prompt I'd appreciate it if you could say whether QQLDEYQKLLD [LMNA_Y359_E361K] has phosphorylation enrichment at least equal to 0.5.
### Response 1 (yes)

### Prompt I'd appreciate it if you could say whether AAVPAYDKIQV [STXBP2_Y401_R405Q] has phosphorylation enrichment at least equal to 0.5.
### Response 1 (yes)

### Prompt I'd appreciate it if you could say whether FPPTHYIRRMP [SLC4A11_Y820_V824M_YF] has phosphorylation enrichment at least equal to 0.5.
### Response 1 (yes)

### Prompt I'd appreciate it if you could say whether LDYNEYFRNLN [HPRT1_Y198_D201N] has phosphorylation enrichment at least equal to 0.5.
### Response 0 (no)

### Prompt I'd appreciate it if you could say whether HQKKPYCHAHN [NRAP_Y53] has phosphorylation enrichment at least equal to 0.5.
### Response 1 (yes)

### Prompt I'd appreciate it if you could say whether GLCSYYETSKM [MAGED2_Y449_R446C] has phosphorylation enrichment at least equal to 0.5.
### Response 1 (yes)

### Prompt I'd appreciate it if you could say whether IDLEKYKLLPE [DHFR_Y157] has phosphorylation enrichment at least equal to 0.5.
### Response 0 (no)

### Prompt I'd appreciate it if you could say whether LEHCQYVTQKV [ALDOB_Y204_E207Q] has phosphorylation enrichment at least equal to 0.5.
### Response 0 (no)

### Prompt I'd appreciate it if you could say whether RAKLFYQEVPA [METTL11B_Y76] has phosphorylation enrichment at least equal to 0.5.
### Response 1 (yes)

### Prompt I'd appreciate it if you could say whether KEIHAYRKLLE [LMNA_Y376_M371K] has phosphorylation enrichment at least equal to 0.5.
### Response 0 (no)

### Prompt I'd appreciate it if you could say whether EARRVYGDIIY [ALDH5A1_Y175_H180Y] has phosphorylation enrichment at least equal to 0.5.
### Response 0 (no)

### Prompt I'd appreciate it if you could say whether PFGQWYESHFA [RPS8_Y113_R110G_YF] has phosphorylation enrichment at least equal to 0.5.
### Response 1 (yes)

### Prompt I'd appreciate it if you could say whether WTAHSYRMGST [ARHGEF7_Y785] has phosphorylation enrichment at least equal to 0.5.
### Response 0 (no)

### Prompt I'd appreciate it if you could say whether PDGREYIYVDP [PDGFRA_Y572_H570R] has phosphorylation enrichment at least equal to 0.5.
### Response 1 (yes)

### Prompt I'd appreciate it if you could say whether YIATQYSLCPR [LBR_Y166_R169C] has phosphorylation enrichment at least equal to 0.5.
### Response 1 (yes)

### Prompt I'd appreciate it if you could say whether EGNERYEGFCV [GRIA3_Y451_YF] has phosphorylation enrichment at least equal to 0.5.
### Response 0 (no)

### Prompt I'd appreciate it if you could say whether IHFAIYFLKFS [ARMC9_Y107_L108F_YF] has phosphorylation enrichment at least equal to 0.5.
### Response 0 (no)

### Prompt I'd appreciate it if you could say whether FSQQVYRVNLS [FAT4_Y480] has phosphorylation enrichment at least equal to 0.5.
### Response 0 (no)

### Prompt I'd appreciate it if you could say whether GLNKDYRMVVN [HINT1_Y94_G93D] has phosphorylation enrichment at least equal to 0.5.
### Response 0 (no)

### Prompt I'd appreciate it if you could say whether VLTSTYRGGGG [HBA1_Y141_K140T] has phosphorylation enrichment at least equal to 0.5.
### Response 0 (no)

### Prompt I'd appreciate it if you could say whether ERNAHYRTPKI [PTK2B_Y699_R698H] has phosphorylation enrichment at least equal to 0.5.
### Response 0 (no)

### Prompt I'd appreciate it if you could say whether EGVPLYESATT [DCC_Y809] has phosphorylation enrichment at least equal to 0.5.
### Response 1 (yes)

### Prompt I'd appreciate it if you could say whether FSLPAYMDRRD [COX4I1_Y38] has phosphorylation enrichment at least equal to 0.5.
### Response 0 (no)

### Prompt I'd appreciate it if you could say whether KIFPEYLSNWT [AIFM1_Y347_L344F] has phosphorylation enrichment at least equal to 0.5.
### Response 0 (no)

### Prompt I'd appreciate it if you could say whether NDHHVYLEGTL [ALDOB_Y223] has phosphorylation enrichment at least equal to 0.5.
### Response 0 (no)

### Prompt I'd appreciate it if you could say whether SDTGQYQCLVF [AXL_Y115] has phosphorylation enrichment at least equal to 0.5.
### Response 1 (yes)

### Prompt I'd appreciate it if you could say whether EHTTLYSNNST [KANSL1_Y223] has phosphorylation enrichment at least equal to 0.5.
### Response 0 (no)

### Prompt I'd appreciate it if you could say whether DRLAVYIDRVR [LMNA_Y45] has phosphorylation enrichment at least equal to 0.5.
### Response 0 (no)

### Prompt I'd appreciate it if you could say whether RRGTRYMSSRP [RPL21_Y13_F15S] has phosphorylation enrichment at least equal to 0.5.
### Response 1 (yes)

### Prompt I'd appreciate it if you could say whether KEAALYPHLLP [SQSTM1_Y383_P387L] has phosphorylation enrichment at least equal to 0.5.
### Response 0 (no)
